Test: The drug is tested on WLS-082 corresponding to human gut metagenome with ENA study accession number: PRJEB37062 and ENA sample accession number: ERS12561751 for biotransformation under anaerobic condition. The drug concentrations were measured over 9 timepoints collected between 0 and 24 hours of incubation by liquid-chromatography-coupled mass spectrometry (LC–MS); further: call rule not given here
Details: 2 µM
Endpoint Label: Bacterial Biotransformation

A selection of reference data follows.
Molecule | Experimental Result
O=c1[nH]c2ccccc2n1C1CCN(CCCC(c2ccc(F)cc2)c2ccc(F)cc2)CC1 [PIMOZIDE] | Compound metabolized
Cc1ccc(-c2cc(C(F)(F)F)nn2-c2ccc(S(N)(=O)=O)cc2)cc1 | Compound metabolized
CC(=O)OCC(=O)[C@@]12N=C(C)O[C@@H]1C[C@H]1[C@@H]3CCC4=CC(=O)C=C[C@]4(C)[C@H]3[C@@H](O)C[C@@]12C | Compound metabolized
CN1CCOC(c2ccccc2)c2ccccc2C1 (stereo not given) | Compound NOT metabolized
OC(CCN1CCCCC1)(c1ccccc1)C1CCCCC1 (stereo not given) | Compound NOT metabolized

Please supply Bacterial Biotransformation for each of the following items, keeping them in order.
1. O=C(CCCN1CCC(O)(c2ccc(Cl)cc2)CC1)c1ccc(F)cc1
2. CCOc1ccc(NC(C)=O)cc1
3. CO[C@]12C[C@@H](COC(=O)c3cncc(Br)c3)CN(C)[C@@H]1Cc1cn(C)c3cccc2c13
4. NS(=O)(=O)c1cc2c(cc1Cl)N=C(CSCc1ccccc1)NS2(=O)=O [BENZTHIAZIDE]
5. COc1cc2c(c(OC)c1OC)-c1ccc(OC)c(=O)cc1[C@@H](NC(C)=O)CC2

1. Compound metabolized
2. Compound NOT metabolized
3. Compound NOT metabolized
4. Compound NOT metabolized
5. Compound metabolized

Could I get Bacterial Biotransformation for every one of these entries?
1. CCCCC(=O)N(Cc1ccc(-c2ccccc2-c2nnn[nH]2)cc1)[C@H](C(=O)O)C(C)C
2. CCCc1nn(C)c2c(=O)[nH]c(-c3cc(S(=O)(=O)N4CCN(C)CC4)ccc3OCC)nc12.O=C(O)CC(O)(CC(=O)O)C(=O)O [SILDENAFIL CITRATE]

Compound metabolized
Compound NOT metabolized

Answer for every listed entry: what is its Bacterial Biotransformation? The entries follow.
1. Nc1nc2ccc(OC(F)(F)F)cc2s1
2. CN1C(=O)CC(C)(c2ccccc2)C1=O (stereo not given) [METHSUXIMIDE]
3. CC(C)c1nc(CN(C)C(=O)N[C@H](C(=O)N[C@@H](Cc2ccccc2)C[C@H](O)[C@H](Cc2ccccc2)NC(=O)OCc2cncs2)C(C)C)cs1
4. CN1CC(=O)N2[C@H](c3ccc4c(c3)OCO4)c3[nH]c4ccccc4c3C[C@@H]2C1=O
5. CC(C)(C)NC[C@H](O)COc1ccccc1C1CCCC1.CC(C)(C)NC[C@H](O)COc1ccccc1C1CCCC1.O=S(=O)(O)O [PENBUTOLOL SULFATE]
6. O=c1n(CCCN2CCN(c3cccc(Cl)c3)CC2)nc2ccccn12
7. Cc1ccccc1N1C(=O)c2cc(S(N)(=O)=O)c(Cl)cc2NC1C (stereo not given)
8. COc1ccc2[nH]c([S+]([O-])Cc3ncc(C)c(OC)c3C)nc2n1 (stereo not given)

1: Compound metabolized; 2: Compound NOT metabolized; 3: Compound metabolized; 4: Compound metabolized; 5: Compound metabolized; 6: Compound metabolized; 7: Compound NOT metabolized; 8: Compound metabolized

For every item below, please supply its Bacterial Biotransformation.
1. O=C(NCc1ccccc1)OCCO [BURAMATE]
2. Cc1ccnc2c1NC(=O)c1cccnc1N2C1CC1
3. CC(CN(C)C)CN1c2ccccc2CCc2ccccc21.O=C(O)/C=C\C(=O)O (stereo not given) [TRIMIPRAMINE MALEATE]
4. CC(C)NCC(O)COc1ccc(CCOCC2CC2)cc1 (stereo not given)

Compound NOT metabolized
Compound NOT metabolized
Compound metabolized
Compound NOT metabolized

Go through the list and state Bacterial Biotransformation for each entry.
1. Br.CN(C)CCCC1(c2ccc(F)cc2)OCc2cc(C#N)ccc21 (stereo not given) [CITALOPRAM HYDROBROMIDE]
2. COc1ccc(CCN(C)CCCC(C#N)(c2ccc(OC)c(OC)c2)C(C)C)cc1OC (stereo not given)
3. CC(Oc1c(Cl)cccc1Cl)C1=NCCN1 (stereo not given)
4. CCC(=O)NCC[C@@H]1CCc2ccc3c(c21)CCO3
5. Cc1ccc(S(=O)(=O)NC(=O)NN2CCCCCC2)cc1 [TOLAZAMIDE]

1: Compound NOT metabolized; 2: Compound metabolized; 3: Compound NOT metabolized; 4: Compound metabolized; 5: Compound metabolized

Please give Bacterial Biotransformation for each item listed below.
1. CCOC(=O)[C@H](CCc1ccccc1)N[C@@H](C)C(=O)N1[C@H](C(=O)O)C[C@@H]2CCC[C@@H]21
2. CCN1CCCC1CNC(=O)c1cc(S(N)(=O)=O)ccc1OC (stereo not given) [SULPIRIDE]

Compound metabolized
Compound NOT metabolized

Would you mind listing Bacterial Biotransformation for each of the following molecules?
1. CNCCC(Oc1ccc(C(F)(F)F)cc1)c1ccccc1 (stereo not given)
2. CN(C)C(=O)C(CCN1CCC(O)(c2ccc(Cl)cc2)CC1)(c1ccccc1)c1ccccc1 [LOPERAMIDE]
3. C#C[C@]1(O)CC[C@H]2[C@@H]3CCC4=Cc5oncc5C[C@]4(C)[C@H]3CC[C@@]21C
4. Cc1nc(-c2ccc(OCC(C)C)c(C#N)c2)sc1C(=O)O

Compound NOT metabolized
Compound metabolized
Compound metabolized
Compound metabolized

* * *

Test: The drug is tested on Z-025 corresponding to rabbit gut metagenome with ENA study accession number: PRJEB37062 and ENA sample accession number: ERS12561824 for biotransformation under anaerobic condition. The drug concentrations were measured over 9 timepoints collected between 0 and 24 hours of incubation by liquid-chromatography-coupled mass spectrometry (LC–MS)
Conditions: 2 µM
Endpoint Label: Bacterial Biotransformation

For orientation, consider the following solved cases.
Compound | Bacterial Biotransformation
COC(=O)Nc1nc2ccc(C(=O)c3ccccc3)cc2[nH]1 [MEBENDAZOLE] | Compound metabolized
CCN(CC)C(=O)/C(C#N)=C/c1cc(O)c(O)c([N+](=O)[O-])c1 [ENTACAPONE] | Compound metabolized
CCOC(=O)[C@H](CCc1ccccc1)N[C@H]1CCc2ccccc2N(CC(=O)O)C1=O [BENAZEPRIL] | Compound NOT metabolized
CN1CCOC(c2ccccc2)c2ccccc2C1 (stereo unspecified) [NEFOPAM] | Compound NOT metabolized
CNC(=C[N+](=O)[O-])NCCSCc1csc(CN(C)C)n1 [NIZATIDINE] | Compound NOT metabolized

Could you now look at the following compound, please?
What does the record list as Bacterial Biotransformation for COc1c2occc2cc2ccc(=O)oc12 [METHOXSALEN] ?
Compound metabolized

* * *

Details: human gut metagenome, 24 h, 2 µM
Endpoint Label: Bacterial Biotransformation

# count of solved cases: 5
Molecule | Experimental Result
CCN(CC)CCOCCOC(=O)C1(c2ccccc2)CCCC1.O=C(O)CC(O)(CC(=O)O)C(=O)O [CARBETAPENTANE CITRATE] | Compound metabolized
C[C@@H]1CC[C@H]2[C@@H](C)C(=O)O[C@@H]3O[C@@]4(C)CC[C@@H]1[C@]32OO4 [ARTEMISININ] | Compound metabolized
O=C(Nc1ccccc1)OCC(CN1CCCCC1)OC(=O)Nc1ccccc1 (stereo unspecified) [DIPERODON] | Compound metabolized
OC(Cn1cncn1)(Cn1cncn1)c1ccc(F)cc1F [FLUCONAZOLE] | Compound metabolized
C#C[C@]1(O)CC[C@H]2[C@@H]3CCC4=CC(=O)CC[C@@H]4[C@H]3CC[C@@]21CC [LEVONORGESTREL] | Compound metabolized

Could you tell me Bacterial Biotransformation for each of these molecules? They are listed below.
1. CN/C(=N/CCSCc1nc[nH]c1C)NC#N [CIMETIDINE]
2. CC(C)NCC(O)c1ccc(NS(C)(=O)=O)cc1 (stereo unspecified) [SOTALOL]
3. CN1CCN(C(=O)O[C@H]2c3nccnc3C(=O)N2c2ccc(Cl)cn2)CC1 [ESZOPICLONE]
4. CC(C)N(CCC(C(N)=O)(c1ccccc1)c1ccccn1)C(C)C.O=P(O)(O)O (stereo unspecified) [DISOPYRAMIDE PHOSPHATE]
5. C=CCN1CC[C@]23c4c5ccc(O)c4O[C@H]2C(=O)CC[C@@]3(O)[C@H]1C5 [NALOXONE]
6. CCOC(=O)[C@H](CCc1ccccc1)N[C@@H](C)C(=O)N1[C@H](C(=O)O)C[C@H]2CCCC[C@@H]21 [TRANDOLAPRIL]
7. CC(C)(C)NC[C@H](O)COc1ccccc1C1CCCC1.CC(C)(C)NC[C@H](O)COc1ccccc1C1CCCC1.O=S(=O)(O)O [PENBUTOLOL SULFATE]
8. CCN1CCCC1CNC(=O)c1cc(S(N)(=O)=O)ccc1OC (stereo unspecified) [SULPIRIDE]

["Compound NOT metabolized", "Compound NOT metabolized", "Compound NOT metabolized", "Compound NOT metabolized", "Compound NOT metabolized", "Compound metabolized", "Compound metabolized", "Compound NOT metabolized"]

Batch request: Bacterial Biotransformation per item, same order as input.
1. CCCC1O[C@@H]2C[C@H]3[C@@H]4CCC5=CC(=O)C=C[C@]5(C)[C@H]4[C@@H](O)C[C@]3(C)[C@]2(C(=O)CO)O1 (stereo partly specified) [BUDESONIDE]
2. CN1CCC(=C2c3ccccc3CCc3cccnc32)CC1.O=C(O)/C=C\C(=O)O.O=C(O)/C=C\C(=O)O [AZATADINE MALEATE]

1. Compound metabolized
2. Compound NOT metabolized

Name the recorded Bacterial Biotransformation for COc1c2occc2cc2ccc(=O)oc12 [METHOXSALEN] .
Compound metabolized

These measurements were taken from ChEMBL document CHEMBL5724914.
